Measured values drawn from patent US20230340128A1 for this set.

Each item that follows carries a reported Response.
- studyTarget: cyno MSLN (Macaca fascicularis)
- experimentNotes: BLI (Octet), bsAb in 1+1 Fab-scFv-Fc format
// print number alone

The following binders have reported results that may help.
1) XENP32570 (bispecific antibody, part only; not given: anti-CD3 scFv-Fc arm, constant regions, V domains shown, not shown: another chain or arm of the molecule; a dimerising Fc or GST; small tags and cut ends) VH: QVQLVQSGAEVKKPGASVKVSCKASGYTFTSYWMHWVRQAPGQGLEWMGMIHPNSGNTIYYEKFQGRVTMTVDKSISTAYMELSRLRSDDTAVYYCAIIITPVVPKFDYWGQGTLVTVSS VL: DIVMTQSPDSLAVSLGERATINCKASHSVGTSVAWYQQKPGQSPKLLIYWASTRHTGVPDRFTGSGSGTDFTLTISSLQAEDVAVYFCQQYSSYPLTFGAGTKLEIK = 0.95
2) XENP32564 (bispecific antibody, part only; not given: anti-CD3 scFv-Fc arm, constant regions, V domains shown, not shown: another chain or arm of the molecule; a dimerising Fc or GST; small tags and cut ends) VH: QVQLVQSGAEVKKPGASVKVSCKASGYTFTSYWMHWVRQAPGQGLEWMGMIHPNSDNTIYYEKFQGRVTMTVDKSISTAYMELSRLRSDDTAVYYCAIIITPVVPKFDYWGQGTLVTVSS VL: DIVMTQSPDSLAVSLGERATINCKASHDVGTSLAWYQQKPGQSPKLLIYWASTRHTGVPDRFTGSGSGTDFTLTISSLQAEDVAVYFCQQYSSYPLTFGAGTKLEIK = 0.849
3) XENP32569 (bispecific antibody, part only; not given: anti-CD3 scFv-Fc arm, constant regions, V domains shown, not shown: another chain or arm of the molecule; a dimerising Fc or GST; small tags and cut ends) VH: QVQLVQSGAEVKKPGASVKVSCKASGYTFTSYWMHWVRQAPGQGLEWMGMIHPQSDNTIYYEKFQGRVTMTVDKSISTAYMELSRLRSDDTAVYYCAIIITPVVPKFDYWGQGTLVTVSS VL: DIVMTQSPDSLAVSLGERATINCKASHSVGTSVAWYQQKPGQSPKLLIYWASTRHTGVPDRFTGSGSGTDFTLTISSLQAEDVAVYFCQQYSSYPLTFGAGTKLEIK = 0.867

Which Response is listed for XENP32568 (bispecific antibody, part only; not given: anti-CD3 scFv-Fc arm, constant regions, V domains shown, not shown: another chain or arm of the molecule; a dimerising Fc or GST; small tags and cut ends) VH: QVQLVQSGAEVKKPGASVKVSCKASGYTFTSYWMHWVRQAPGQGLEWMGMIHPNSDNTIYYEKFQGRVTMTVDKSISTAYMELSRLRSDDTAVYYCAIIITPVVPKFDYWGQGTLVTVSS VL: DIVMTQSPDSLAVSLGERATINCKASHDVGTSVAWYQQKPGQSPKLLIYWASTRHTGVPDRFTGSGSGTDFTLTISSLQAEDVAVYFCQQYSSTPLTFGAGTKLEIK ?
0.0728

Which Response is listed for XENP32565 (bispecific antibody, part only; not given: anti-CD3 scFv-Fc arm, constant regions, V domains shown, not shown: another chain or arm of the molecule; a dimerising Fc or GST; small tags and cut ends) VH: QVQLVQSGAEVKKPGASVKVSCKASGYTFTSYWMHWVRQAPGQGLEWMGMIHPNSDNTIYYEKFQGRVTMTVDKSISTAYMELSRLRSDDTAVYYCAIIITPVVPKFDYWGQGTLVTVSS VL: DIVMTQSPDSLAVSLGERATINCKASHDVGTSVAWYQQKPGQSPKLLIYWASTRETGVPDRFTGSGSGTDFTLTISSLQAEDVAVYFCQQYSSYPLTFGAGTKLEIK ?
1
